Tested on: Staphylococcus epidermidis
ASSAY METHOD TEXT: Compound was tested for reduction in the production of lipid II relative to the control(judged by intensity) on the film, inhibition of either MraY or MurG at a dose of 50 ug/mL
Format: functional
The source made the active and inactive calls. No cut-off for these calls is given here.
MEASURED METRIC: Inhibitory activity

CO[C@H]1[C@H](OC(C2C(=O)N(Cc3ccccc3)C(=O)N2CCCNC(=O)[C@@H](NC(=O)[C@@H](NC(=O)N[C@H](C(=O)O)C(C)C)[C@@H]2CCN=C(N)N2)[C@@H](O)C(C)C)[C@H]2O[C@@H](n3ccc(=O)[nH]c3=O)[C@H](O)[C@@H]2O)O[C@H](CN)[C@H]1O (some centres not stated) ... Active
CCCCCCCCCCCCN(CCCNC(=O)[C@@H](NC(=O)[C@@H](NC(=O)N[C@H](C(=O)O)C(C)C)[C@@H]1CCN=C(N)N1)[C@@H](O)C(C)C)[C@H](C(=O)O)C(O[C@@H]1O[C@H](CN)[C@@H](O)[C@H]1OC)[C@H]1O[C@@H](n2ccc(=O)[nH]c2=O)[C@H](O)[C@@H]1O (some centres not stated) ... Active

* * *

Tested on: Staphylococcus epidermidis
ASSAY METHOD TEXT: Compound was tested for reduction in the production of lipid II relative to the control(judged by intensity) on the film, inhibition of either MraY or MurG at a dose of 50 ug/mL
Assay type: functional
Active and inactive are the calls of the source. The rule behind the calls is not given here.
MEASURED METRIC: Inhibitory activity

CO[C@H]1[C@H](OC([C@H](NCCCNC(=O)[C@@H](NC(=O)[C@@H](NC(=O)N[C@H](C(=O)O)C(C)C)[C@@H]2CCN=C(N)N2)[C@@H](O)C(C)C)C(=O)O)[C@H]2O[C@@H](n3ccc(=O)[nH]c3=O)[C@H](O)[C@@H]2O)O[C@H](CN)[C@H]1O (stereo partly drawn) ... Active
CO[C@H]1[C@H](OC(C2C(=O)N(c3ccc(F)cc3)C(=O)N2CCCNC(=O)[C@@H](NC(=O)[C@@H](NC(=O)N[C@H](C(=O)O)C(C)C)[C@@H]2CCN=C(N)N2)[C@@H](O)C(C)C)[C@H]2O[C@@H](n3ccc(=O)[nH]c3=O)[C@H](O)[C@@H]2O)O[C@H](CN)[C@H]1O (stereo partly drawn) ... Active
CCCCCCCCCCCCN1C(=O)C(C(O[C@@H]2O[C@H](CN)[C@@H](O)[C@H]2OC)[C@H]2O[C@@H](n3ccc(=O)[nH]c3=O)[C@H](O)[C@@H]2O)N(CCCNC(=O)[C@@H](NC(=O)[C@@H](NC(=O)N[C@H](C(=O)O)C(C)C)[C@@H]2CCN=C(N)N2)[C@@H](O)C(C)C)C1=O (stereo partly drawn) ... Active

* * *

System: Staphylococcus epidermidis
ASSAY METHOD TEXT: Compound was tested for reduction in the production of lipid II relative to the control(judged by intensity) on the film, inhibition of either MraY or MurG at a dose of 100 ug/mL
Assay type: functional
Calls of active or inactive are those of the source. The rule behind the calls is not given here.
MEASURED METRIC: Inhibitory activity

CCCCCCCCCCCCN1C(=O)C(C(O[C@@H]2O[C@H](CN)[C@@H](O)[C@H]2OC)[C@H]2O[C@@H](n3ccc(=O)[nH]c3=O)[C@H](O)[C@@H]2O)N(CCCNC(=O)[C@@H](NC(=O)[C@@H](NC(=O)N[C@H](C(=O)O)C(C)C)[C@@H]2CCN=C(N)N2)[C@@H](O)C(C)C)C1=O (some centres not stated) ... Active
CO[C@H]1[C@H](OC(C2C(=O)N(Cc3ccccc3)C(=O)N2CCCNC(=O)[C@@H](NC(=O)[C@@H](NC(=O)N[C@H](C(=O)O)C(C)C)[C@@H]2CCN=C(N)N2)[C@@H](O)C(C)C)[C@H]2O[C@@H](n3ccc(=O)[nH]c3=O)[C@H](O)[C@@H]2O)O[C@H](CN)[C@H]1O (some centres not stated) ... Active
